System: CCRF-CEM leukemia
Experiment: NCI tumour cell line growth inhibition, 48 h; in the data active = GI50 below about 0.43 µM; inactive = the rest
Pick one: True = active, False = inactive

COMPOUND: Ic1ccc2[nH]cc(SSc3c[nH]c4ccc(I)cc34)c2c1
LABEL: False

Just curious, what result did C=C(C)[C@@H]1CC[C@]2(CNCCO)CC[C@]3(C)[C@H](CC[C@@H]4[C@@]5(C)CCC(N)[C@@](C)(CO)[C@@H]5CC[C@]43C)[C@@H]12 (stereo partly drawn) get here?
False

Just curious, what result did `O=C(Cc1csc2nc(-c3ccc(Br)cc3)cn12)N/N=C/c1cc(Br)ccc1O` get here?
False

====

Give measured TGI for each item. Keep answers brief.
System: NCI-H460 lung
Test: NCI tumour cell line growth inhibition, 48 h
Answers are plain numbers, in µM.

MOLECULE: COc1ccc2c(CCC(c3ccccc3)c3ccccc3)c3[n+](cc2c1OC)CCc1cc2c(cc1-3)OCO2
TGI, µM: 1.03
//
MOLECULE: COc1cc(C2c3cc4c(cc3OC(N3CCCCC3)C2C)OCO4)cc(OC)c1OC (stereo not given)
TGI, µM: 18
//
MOLECULE: O=C1C[C@H](Sc2ccccc2)C2(OCCO2)[C@H]2ON3CCC[C@@H]3[C@@H]12
TGI, µM: 9.55
//
MOLECULE: CC(=O)OCC1OC(OC2=C(CC=C(C)C)C(=O)c3ccccc3C2=O)C(OC(C)=O)C(OC(C)=O)C1OC(C)=O (stereo not given)
TGI, µM: 15.5
//
MOLECULE: Cc1cc2c(cc1C)N1C(Cl)=C3CCCCC3=C(C#N)C1N2 (stereo not given)
TGI, µM: 51.8
//
MOLECULE: CC(=O)Oc1ccc2c(c1OC(C)=O)CCC1C2=CC[C@]2(C)C(=O)CCC12 (stereo not given in full)
TGI, µM: 40.3

Item Nc1nc2c(c3cnccc13)C(c1cccc(Br)c1)Cc1cnccc1-2 (stereo not given) has what recorded TGI?
11.5

These measurements were taken from PubChem BioAssay (NCI).
